For each entry below, report its SPOT intensity value.
TEST SYSTEM: Myo3, P36006
METHOD NOTES: SPOT array
MEASUREMENT PARAMETERS: median of control spots 468

Each binder below has a recorded value; state its SPOT intensity.
1. GPPPPLPPPLFPSSS
2. FYHRPAPKPPVTKKV
3. NFLRLLIGLPSQNEL
4. NTMKKRPAPPSLPSL
5. QQNRPLPQLPNRNNR
6. IFLRISINFPLNYPN
7. SKAKRPKFLLDLQIK

Result:
1: 575; 2: 37; 3: 10; 4: 99; 5: 0; 6: 71; 7: 6

Numbers sourced from paper PMC2756588.
